List of inhibition at 0.1 µM values.
# Target of assay: TBK1 (Homo sapiens, UniProt Q9UHD2)
# Sequence (Q9UHD2 whole entry): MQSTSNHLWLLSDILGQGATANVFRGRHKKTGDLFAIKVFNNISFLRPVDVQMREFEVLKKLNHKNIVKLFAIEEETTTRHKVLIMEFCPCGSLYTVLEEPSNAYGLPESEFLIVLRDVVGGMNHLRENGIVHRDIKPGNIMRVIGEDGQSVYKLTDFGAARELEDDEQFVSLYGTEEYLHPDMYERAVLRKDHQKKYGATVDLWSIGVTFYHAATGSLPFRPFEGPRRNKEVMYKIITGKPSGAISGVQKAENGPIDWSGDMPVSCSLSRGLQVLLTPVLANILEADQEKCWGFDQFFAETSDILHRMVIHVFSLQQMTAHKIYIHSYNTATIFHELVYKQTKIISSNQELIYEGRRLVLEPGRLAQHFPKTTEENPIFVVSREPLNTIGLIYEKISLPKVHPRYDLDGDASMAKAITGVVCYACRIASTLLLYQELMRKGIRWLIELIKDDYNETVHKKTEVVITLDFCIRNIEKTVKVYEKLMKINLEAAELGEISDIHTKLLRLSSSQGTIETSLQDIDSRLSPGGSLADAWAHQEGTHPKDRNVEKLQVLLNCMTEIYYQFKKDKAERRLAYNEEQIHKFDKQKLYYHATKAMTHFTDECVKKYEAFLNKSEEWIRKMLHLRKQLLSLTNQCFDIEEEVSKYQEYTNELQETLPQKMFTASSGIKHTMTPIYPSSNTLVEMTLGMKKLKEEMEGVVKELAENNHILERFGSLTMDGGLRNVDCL
# Test details: FRET-based Z'-LYTE TBK1 enzymatic assay
# Type: biochemical
# Parameters: purchased Thermo Scientific A31513
# Condition notes: read-out: TBK1 inhibition (%) 100 nM, compound at 100 nM; 100 µM ATP

{"Compound": "COc1ccc(CCNc2n[nH]c3ncc(-c4ccc(CN5CCN(C)CC5)cc4)cc23)cc1 [Compound 12f]", "inhibition at 0.1 µM / %": -9.7}
{"Compound": "CN1CCN(Cc2ccc(-c3cnc4[nH]nc(NCc5ccc(Cl)cc5Cl)c4c3)cc2)CC1 [Compound 12c]", "inhibition at 0.1 µM / %": -30.1}
{"Compound": "NS(=O)(=O)c1ccc(-c2cnc3[nH]nc(-c4ccc(N5CCOCC5)cc4)c3c2)cc1 [Compound 15m]", "inhibition at 0.1 µM / %": -8.9}
{"Compound": "NS(=O)(=O)c1ccc(-c2cnc3[nH]nc(-c4cnn(CCO)c4)c3c2)cc1 [Compound 15o]", "inhibition at 0.1 µM / %": -2.7}
{"Compound": "CN1CCN(Cc2ccc(-c3cnc4[nH]nc(NCCCn5ccnc5)c4c3)cc2)CC1 [Compound 12i]", "inhibition at 0.1 µM / %": 15.2}
{"Compound": "NS(=O)(=O)c1ccc(-c2cnc3[nH]nc(-c4cc(F)c5cn[nH]c5c4)c3c2)cc1 [Compound 15q]", "inhibition at 0.1 µM / %": 12.7}
{"Compound": "CN1CCN(Cc2ccc(-c3cnc4[nH]nc(-c5ccc6[nH]ccc6c5)c4c3)cc2)CC1 [Compound 15a]", "inhibition at 0.1 µM / %": 13.2}
{"Compound": "Cc1nc2cc(-c3n[nH]c4ncc(-c5ccc(S(N)(=O)=O)cc5)cc34)cc(F)c2o1 [Compound 15r]", "inhibition at 0.1 µM / %": 10.8}
{"Compound": "CN1CCN(Cc2ccc(-c3cnc4[nH]nc(NCCc5ccc(F)cc5)c4c3)cc2)CC1 [Compound 12e]", "inhibition at 0.1 µM / %": -1.4}
